meta.source: ChEMBL document CHEMBL1201862

Test system: HOP-18
Assay: NCI tumour cell line growth inhibition, 48 h
Calls of active or inactive are those of the source. Rule as the data show it: active = GI50 up to about 1.1 µM and inactive = higher.
resultType: GI50

>>> measvalue("COc1ccc(OC)c(NCC#N)c1")
"> 100 µM (inactive)"
>>> measvalue("N#CC(OC1OC(COC2OC(CO)C(O)C(O)C2O)C(O)C(O)C1O)c1ccccc1 (stereo unspecified)")
"> 225 µM (inactive)"
>>> measvalue("Cc1cccc(C)c1NC(=O)CCC(=O)NC(N)=S")
"> 100 µM (inactive)"
>>> measvalue("COC1=C(N)C(=O)c2nc(-c3nc(C(=O)O)c(C)c(-c4ccc(OC)c(OC)c4O)c3N)ccc2C1=O [STREPTONIGRIN]")
"< 0.01 µM (active)"
>>> measvalue("CN(C)CC1CCCC/C1=N/OC(=O)c1ccc(Cl)cc1 (stereo unspecified)")
"> 100 µM (inactive)"
>>> measvalue("OCC1OC(c2nc(C3=NCCCN3)cs2)C(O)C1O (stereo unspecified)")
"> 100 µM (inactive)"
>>> measvalue("C=C1CCCC2OC(OC)CCC12 (stereo unspecified)")
"> 100 µM (inactive)"
>>> measvalue("C(=N\\OCc1ccccc1)/c1ncccc1C1OCCO1")
"> 100 µM (inactive)"
>>> measvalue("COC(=O)NN1C(C)=C(C(=O)OC)C2(C#N)C(C(=O)OC)=C(C)N(NC(=O)OC)C12N (stereo unspecified)")
"> 100 µM (inactive)"
>>> measvalue("CC1(C(=O)O)CCOc2ccccc21 (stereo unspecified)")
"> 100 µM (inactive)"
>>> measvalue("O=c1[nH]cc(COCC(F)(F)C(F)(F)C(F)(F)C(F)F)c(=O)[nH]1")
"> 100 µM (inactive)"
>>> measvalue("C#CC[C@]12CC(=O)CC[C@H]1CC(=O)C2")
"> 100 µM (inactive)"
>>> measvalue("C#CCCCCC#CC1CCCC1C1=CC(=O)c2ccccc21 (stereo unspecified)")
"12.5 µM (inactive)"
>>> measvalue("COc1cc(OC)c2c(c1)C(=O)C(CC1(C)OCCCO1)=CC2=O")
"13 µM (inactive)"
>>> measvalue("Oc1cc(-c2cccc(Br)c2)nc2cc3c(cc12)OCO3")
"15.7 µM (inactive)"
>>> measvalue("NC(=O)c1csc(C2OC(CO)C(O)C2O)n1 (stereo unspecified)")
"1170 µM (inactive)"

====

Test system: SK-MEL-5
Assay: NCI tumour cell line growth inhibition, 48 h
The source made the active and inactive calls. Cut-off read from the data, not from the text of the source: active = GI50 up to about 1.1 µM and inactive = higher.
Possible outcomes: y = active, n = inactive

>>> assignedlabel("O=P(O)(O)CN1CCNCCN(CP(=O)(O)O)CCN(CP(=O)(O)O)CCNCC1")
"n"
>>> assignedlabel("CCN(CC)C(=O)c1cc([N+](=O)[O-])c(=O)n2c1[nH]c1ccccc12")
"n"
>>> assignedlabel("C=CCNC(=S)N1c2ccccc2NC(=O)CC1C (stereo not drawn)")
"n"
>>> assignedlabel("Cn1c(=O)nc2n(-c3ccc(Br)cc3)c3ccccc3nc-2c1=O")
"n"
>>> assignedlabel("O=C(Nc1nc(C23CC4CC(CC(C4)C2)C3)cs1)c1cc2cc([N+](=O)[O-])ccc2oc1=O")
"n"
>>> assignedlabel("COc1ccc(Nc2nc3ccc(C(F)(F)F)cc3nc2C(=O)O)cc1OC")
"n"
>>> assignedlabel("C/C(=N\\c1cc(Cl)cc(Cl)c1)c1ccncc1")
"n"
>>> assignedlabel("CO[C@@H]1C[C@H](OC(N)=O)[C@@H]2C=C[C@@H]3/C=C(C)/C=C/[C@@H](C)[C@H](/C(C)=C/[C@@H](C)NC(C)=O)OC(=O)/C=C/C=C(C)\\C=C\\[C@]3(C)[C@@H]2C1 [SUPERSTOLIDE B]")
"y"

====

Test system: COLO 205
Assay: NCI tumour cell line growth inhibition, 48 h
Active and inactive are the calls of the source. Rule as the data show it: active = GI50 up to about 1.1 µM and inactive = higher.
Classes used: 1 (yes) (active), 0 (no) (inactive)

>>> assignedlabel("O=c1[nH]cc(COCC(F)(F)C(F)(F)C(F)(F)C(F)F)c(=O)[nH]1")
"0 (no)"
>>> assignedlabel("C=CCOC(=O)C1=C(CCC[C@@H](C)O[Si](C)(C)C(C)(C)C)N=C(N)N2[C@H](CCO)CC[C@@H]12")
"0 (no)"
>>> assignedlabel("C=C1CCc2occ(C)c2C2C1C1=C(CC(C)C1=O)C1OC12C (configuration not stated)")
"0 (no)"
>>> assignedlabel("CCOC(=O)C(N=C(c1ccccc1)c1ccccc1)N(C(=O)OC(C)(C)C)C(=O)OC(C)(C)C (configuration not stated)")
"0 (no)"
>>> assignedlabel("Oc1ccc2ccccc2c1/N=N/c1cc(Cl)ccc1Cl")
"0 (no)"
>>> assignedlabel("Cc1ccc(/C=N/n2c(=O)[nH]c3ccccc3c2=O)cc1")
"0 (no)"
>>> assignedlabel("C#CCOCC12C=CC(O1)C1C(=O)N(C)C(=O)C12 (configuration not stated)")
"0 (no)"
>>> assignedlabel("Cc1ccc(CCCCCOc2ccc(C3=NCCO3)cc2)s1")
"0 (no)"
>>> assignedlabel("CN1CCN(C(=S)N(C(=O)c2cccs2)c2ccccc2)CC1")
"0 (no)"
>>> assignedlabel("Cn1c(=O)n2c(-c3ccccc3)c(-c3ccccc3)n2c1=O")
"0 (no)"
>>> assignedlabel("COc1ccc(OC)c2c(C(C)=O)cccc12")
"0 (no)"
>>> assignedlabel("CC1=C(CCC(C)CO)O[C@H]2C[C@H]3[C@@H]4CC[C@H]5C[C@@H](O)CC[C@]5(C)[C@H]4CC(=O)[C@]3(C)[C@@H]12 (some centres not stated)")
"0 (no)"
>>> assignedlabel("CCN(CC)C(=O)c1cc([N+](=O)[O-])c(=O)n2c1[nH]c1ccccc12")
"0 (no)"
>>> assignedlabel("CC[C@](C)(O)C(=O)O[C@H]1C(=O)O[C@@H]2C[C@H]3C(C)=CC(=O)[C@@H](O)[C@]3(C)[C@H]3[C@@]4(O)OC[C@]32[C@@H]1[C@@H](C)[C@H]4O")
"1 (yes)"
>>> assignedlabel("O=C1C(c2ccccc2)=[N+]([O-])c2cc([N+](=O)[O-])c(/C(Cl)=C/c3ccccc3)cc21")
"0 (no)"
>>> assignedlabel("C=CCC1[C@@H](C(C)(C)C(C(C)=O)C(=O)C(=O)OC)OC(C(C)(C)C)N1C(=O)OC (some centres not stated)")
"0 (no)"
>>> assignedlabel("CCOc1ccc(NC(=O)/C=C/c2ccco2)cc1")
"0 (no)"
>>> assignedlabel("O=C1CC2(CCNCC2)C(=O)N1N1CCCCC1")
"0 (no)"
>>> assignedlabel("Cc1nc(Nc2ccccc2)sc1C(=O)NNC(N)=O")
"0 (no)"
>>> assignedlabel("Oc1cc(-c2cccc(Br)c2)nc2cc3c(cc12)OCO3")
"0 (no)"
>>> assignedlabel("C=C1CC(OC)(C(O)C(=O)N[C@H]2OCO[C@H]3C2O[C@H](C[C@H](O)COC)C(C)(C)C3OC)O[C@H](C)[C@@H]1C (some centres not stated)")
"1 (yes)"
>>> assignedlabel("C#CC[C@]12CC(=O)CC[C@H]1CC(=O)C2")
"0 (no)"

====

Test system: KM-20L2
Test: NCI tumour cell line growth inhibition, 48 h
Activity calls are given as the source filed them. Cut-off read from the data, not from the text of the source: active = GI50 up to about 1.1 µM and inactive = higher.
Entries and their GI50 values follow.
resultType: GI50

>>> measvalue("COC(=O)/C([Se]c1c(C)cc(C)cc1C)=C(/[Se]c1c(C)cc(C)cc1C)C(=O)OC")
"> 100 µM (inactive)"
>>> measvalue("CSc1ccc(OCC2OC2O)cc1 (configuration not stated)")
"46.2 µM (inactive)"
>>> measvalue("Cc1cc(NS(=O)(=O)c2ccc(NC(=O)c3cccc4cc5ccccc5nc34)cc2)no1")
"27.7 µM (inactive)"
>>> measvalue("CCCCC#C[I+]c1ccccc1")
"18.3 µM (inactive)"
>>> measvalue("O=P1(Oc2ccc(Cl)cc2Cl)Oc2cc3ccccc3cc2O1")
"> 100 µM (inactive)"
>>> measvalue("CCC(COC(=O)CC[C@@H](NC(=O)C(C)NC(=O)C(C)OC1C(O)C(CO)OC(OCc2ccccc2)C1NC(C)=O)C(N)=O)NC1c2ccccc2Nc2cccc([N+](=O)[O-])c21 (some centres not stated)")
"> 100 µM (inactive)"
>>> measvalue("CC(C)c1cccc(C(C)C)c1NC(=O)C(=O)C1SC(=S)NC1=O (configuration not stated)")
"> 100 µM (inactive)"

====

Test system: MCF7
Experiment: NCI tumour cell line growth inhibition, 48 h
Active and inactive are the calls of the source. No stated cut-off is given here; in the data, active = GI50 up to about 1.1 µM and inactive = higher.
Here, each record is paired with measured GI50 data.
resultType: GI50

>>> measvalue("Cc1ccc(Cc2n[nH]c(=O)[nH]2)cc1")
"28.6 µM (inactive)"
>>> measvalue("CC(=O)Nc1ccccc1S(=O)(=O)c1c(-c2c(C)c(Cl)c(C)c(Cl)c2C)noc1C")
"35.1 µM (inactive)"
>>> measvalue("COc1ccc(COC(=O)NCC(=O)NC(C)C(=O)NC(Cc2ccccc2)C(=O)OCc2ccccc2)cc1 (stereo not given)")
"17 µM (inactive)"
>>> measvalue("CN1CCN(c2cc3c(cc2F)c(=O)c(C(=O)O)cn3C2CC2)CC1CC#N (stereo not given)")
"> 100 µM (inactive)"
>>> measvalue("O=C1CCCCc2cccc(O)c21")
"> 100 µM (inactive)"
